System: SF-268 CNS
Experiment: NCI tumour cell line growth inhibition, 48 h
OUTCOME MEASURE: TGI

Find the recorded TGI belonging to CCN1c2cc(Br)cc3[nH]c(=O)n(c23)CCC1C (stereo unspecified) and report it. 46.1 µM

Find the recorded TGI belonging to COc1ccccc1C(=O)NO and report it. > 100 µM

Find the recorded TGI belonging to Cc1ccc(/C=C(\NC(=O)c2ccccc2)c2nc3ccccc3[nH]2)cc1 and report it. > 100 µM

Find the recorded TGI belonging to COC1=C(C)C(=O)c2c(c(CCCl)c3n2CCC3OC(C)=O)C1=O (stereo unspecified) and report it. 17.6 µM

Find the recorded TGI belonging to Nc1[nH]c(=S)nc2nc3c(c(-c4ccccc4)c12)CCCC3 and report it. > 100 µM

Find the recorded TGI belonging to CSc1nc2nn(Cc3ccccc3)cc2c(=O)[nH]1 and report it. > 100 µM

Find the recorded TGI belonging to C/C=C/C=C\C=C/C(O)C(C)C(CCC(C)C1OC(=O)C=CC1C)OP(=O)(O)O (stereo unspecified) and report it. 2.03 µM

Find the recorded TGI belonging to COc1ccc(CCN(CC(=O)N(CC(N)=O)C2CCC[C@@H]2OCc2ccccc2)C(=O)CN(C(=O)CN(CCc2ccc(Cl)cc2)C(=O)CN(C(=O)CN(C)Cc2ccccc2F)[C@H](C)C2CCCCC2)[C@H](C)C2CCCCC2)cc1OC (stereo partly specified) and report it. > 50 µM

Find the recorded TGI belonging to O=C1C=CC(=C(c2ccccc2)c2ccc(O)cc2)C=C1 and report it. 43.3 µM

Find the recorded TGI belonging to CC(C)(C)OC(=O)N1C(OP(=O)(Oc2ccccc2)Oc2ccccc2)=CSc2ccccc21 and report it. > 100 µM

Find the recorded TGI belonging to CC1(C)N=C(N)N=C(N)N1c1ccc(Cl)cc1 and report it. > 100 µM

Values were extracted from PubChem BioAssay (NCI).
